Assay: Mouse PK study (IV and PO)
Format: in vivo
Details: male, C57BL/6, mouse, plasma, po, 10 mg/kg, male C57BL/6 mice, IV 2 mg/kg and PO 10 mg/kg; read-out: F % (bioavailability)
Think of 60% as a floor: if bioavailability stands on it or above, it is True; beneath it, False.

* CCc1nc2ccc(-c3ccc(N4CCC(C(=O)N5CCC(O)CC5)CC4)nc3)cn2c1N(C)c1nc(-c2ccc(F)cc2)c(C#N)s1 [Compound 119] | False
* CCc1nc2ccc(-c3cnc(C(=O)N4CCCC4)nc3)cn2c1N(C)c1nc(-c2ccc(F)cc2)c(C#N)s1 [Compound 47] | True
* CCc1nc2ccc(-c3ccc(N4CCC(C(=O)N5CC[C@@H](O)C5)CC4)nc3)cn2c1N(C)c1nc(-c2ccc(F)cc2)c(C#N)s1 [Compound 114] | False
* CCc1nc2ccc(-c3ccc(N4CCN(C(=O)N5CC[C@@H](O)C5)CC4)nc3)cn2c1N(C)c1nc(-c2ccc(F)cc2)c(C#N)s1 [Compound 92] | False
